molecular target: AKT1-E17K (Homo sapiens, UniProt P31749, E17K); experiment: NanoBRET Target Engagement (TE) Assay; details: full length AKT E17K NanoLuc fusion in transfected HEK-293 cells; 2 hr equilibration with tracer and compound
Sequence (P31749 whole entry E17K, the tested form may be a part): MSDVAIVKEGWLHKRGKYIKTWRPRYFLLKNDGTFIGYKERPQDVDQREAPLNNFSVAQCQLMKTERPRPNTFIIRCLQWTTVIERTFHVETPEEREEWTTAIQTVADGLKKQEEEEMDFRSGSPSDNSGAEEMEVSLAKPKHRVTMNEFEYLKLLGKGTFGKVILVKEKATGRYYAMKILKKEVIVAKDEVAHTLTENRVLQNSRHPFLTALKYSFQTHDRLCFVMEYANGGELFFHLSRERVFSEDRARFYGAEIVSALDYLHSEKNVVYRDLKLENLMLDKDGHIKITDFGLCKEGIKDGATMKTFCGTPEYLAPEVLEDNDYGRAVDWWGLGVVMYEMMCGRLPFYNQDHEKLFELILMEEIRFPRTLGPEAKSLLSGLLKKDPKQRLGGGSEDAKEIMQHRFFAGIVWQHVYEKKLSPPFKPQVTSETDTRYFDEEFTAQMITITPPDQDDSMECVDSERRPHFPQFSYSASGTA
pIC50: −log10 of the molar value.
Assay metric: pIC50

Example cases with answers are listed next.
Missing value: pIC50, AKT1-E17K (Homo sapiens, UniProt P31749, E17K), entry N#CNC1CCN(Cc2ccc(-n3c(-c4cccnc4N)nc4cc(-c5ccccc5)cnc43)cc2)CC1 [Example 11] . Fill in?
6.22 to 7.22

Return pIC50 measured with AKT1-E17K (Homo sapiens, UniProt P31749, E17K) given this compound: N#CN1CCCC2(CCN(Cc3ccc(-n4c(-c5cccnc5N)nc5ccc(-c6ccccc6)nc54)cc3)C2)C1 (stereo not drawn) [Example 21]
< 6.22

Further cases:
Test system AKT1-E17K (Homo sapiens, UniProt P31749, E17K); read-out pIC50; what value for N#CN1C[C@H]2C[C@@H]1CN2Cc1ccc(-n2c(-c3cccnc3N)nc3ccc(-c4ccccc4)nc32)cc1 [Example 35] ?
6.22 to 7.22

====

molecular target: AKT1-E17K (Homo sapiens, UniProt P31749, E17K); experiment: NanoBRET Target Engagement (TE) Assay; details: full length AKT E17K NanoLuc fusion in transfected HEK-293 cells; 2 hr equilibration with tracer and compound
pIC50: −log10 of the molar value.
Assay metric: pIC50

Request - read-out pIC50 | tested on AKT1-E17K (Homo sapiens, UniProt P31749, E17K) | compound N#CNC1CC2(CCN(Cc3ccc(-n4c(-c5cccnc5N)nc5ccc(-c6ccccc6)nc54)cc3)CC2)C1 [Example 13]
> 7.82

Further cases:
Could you share what pIC50 was measured for N#CN1CC2CCC(C1)N2Cc1ccc(-n2c(-c3cccnc3N)nc3ccc(-c4ccccc4)nc32)cc1 [Example 29] , tested on AKT1-E17K (Homo sapiens, UniProt P31749, E17K)?
7.22 to 7.82

Please state recorded pIC50 (tested on AKT1-E17K (Homo sapiens, UniProt P31749, E17K)) of N#CN1CCN(Cc2ccc(-n3c(-c4cccnc4N)nc4ccc(-c5ccccc5)nc43)cc2)CC1 [Example 2]
< 6.22

I'm curious: which pIC50 was measured for N#CN1CC2(CCN(Cc3ccc(-n4c(-c5cccnc5N)nc5ccc(-c6ccccc6)nc54)cc3)CC2)C1 [Example 15] tested on AKT1-E17K (Homo sapiens, UniProt P31749, E17K)?
7.22 to 7.82

====

molecular target: AKT1-E17K (Homo sapiens, UniProt P31749, E17K); assay: NanoBRET Target Engagement (TE) Assay; conditions: full length AKT E17K NanoLuc fusion in transfected HEK-293 cells; 2 hr equilibration with tracer and compound
Assay metric: IC50

// worked examples, IC50 included
Using the record for N#CN1C[C@@H]2CN(Cc3ccc(-n4c(-c5cccnc5N)nc5ccc(-c6ccccc6)nc54)cc3)C[C@@H]2C1 , report its IC50.
60 to 600 nM

Return reported IC50; argument: N#CN1CCC2(CC1)CCN(Cc1ccc(-n3c(-c4cccnc4N)nc4ccc(-c5ccccc5)nc43)cc1)CC2
15 to 60 nM

Any idea what IC50 was measured for N#CN1CC2(C1)CN(Cc1ccc(-n3c(-c4cccnc4N)nc4ccc(-c5ccccc5)nc43)cc1)C2 ?
15 to 60 nM

Can you share its IC50? I mean this compound: N#CN1C2CCC1CN(Cc1ccc(-n3c(-c4cccnc4N)nc4ccc(-c5ccccc5)nc43)cc1)C2
60 to 600 nM

Any idea what IC50 was measured for N#CN[C@@H]1CCN(Cc2ccc(-n3c(-c4cccnc4N)nc4ccc(-c5ccccc5)nc43)cc2)C1 ?
< 15 nM

Form field: reported IC50 of N#CN1CC2CCC1CN2Cc1ccc(-n2c(-c3cccnc3N)nc3ccc(-c4ccccc4)nc32)cc1 (centres unmarked)
60 to 600 nM

Looking for the measured IC50 of N#CNC1CCCCN(Cc2ccc(-n3c(-c4cccnc4N)nc4ccc(-c5ccccc5)nc43)cc2)C1 (centres unmarked) , can you help?
60 to 600 nM

Report IC50 for N#CNC1CCCN(Cc2ccc(-n3c(-c4cccnc4N)nc4ccc(-c5ccccc5)nc43)cc2)CC1 (centres unmarked) please.
15 to 60 nM

Further cases:
Please give the measured IC50 for this compound: C[C@@H]1CN(Cc2ccc(-n3c(-c4cccnc4N)nc4ccc(-c5ccccc5)nc43)cc2)C[C@@H](C)N1C#N
> 600 nM

Please report the recorded IC50 for N#CN1CCC2(CCN(Cc3ccc(-n4c(-c5cccnc5N)nc5ccc(-c6ccccc6)nc54)cc3)CC2)C1 .
< 15 nM

Recorded IC50 of C[C@@H]1CN(Cc2ccc(-n3c(-c4cccnc4N)nc4ccc(-c5ccccc5)nc43)cc2)C[C@H](C)N1C#N , please.
> 600 nM

Consider the compound CC(=O)Nc1cccc(-c2ccc3nc(-c4cccnc4N)n(-c4ccc(CN5CCC(NC#N)CC5)cc4)c3n2)c1 and give its measured IC50.
< 15 nM

Any idea what its IC50 is? The compound is N#CN1CCCC2(C1)CN(Cc1ccc(-n3c(-c4cccnc4N)nc4ccc(-c5ccccc5)nc43)cc1)C2
60 to 600 nM
